# TEST_PROTOCOL: Metabolic stability in human liver microsomes after 1 hr
# Type: ADME, Microsome
# EXPERIMENTAL_PARAMETERS: read-out: Stability

{"INPUT_SMILES": "CN(C)c1ccc(-c2c(N)ncnc2C#Cc2ccc(N3CCOCC3)nc2)cc1", "READOUT_UNIT": "%", "remaining at 1 h": 74}

----------
# TEST_PROTOCOL: Metabolic stability in rat hepatocyte after 24 hrs
# Assay type: ADME, cell-based
# EXPERIMENTAL_PARAMETERS: hepatocytes, read-out: Stability

{"INPUT_SMILES": "CN(C)c1ccc(-c2c(N)ncnc2C#Cc2ccc(N3CCOCC3)nc2)cc1", "remaining at 24 h / %": 21}
